Source of measurements: ChEMBL document CHEMBL3507680

Assay: Human HepG2 cell viability assay in 384 well format
Type: toxicity, cell-based
Parameters: dose 125 nL, time 70.5 hour; concentration not given beside the values
Details: HepG2 cells, read-out: Inhibition
Measured cytotoxicity at 70.5 h by item
Numbers only; they are read as %.

Observe how each entry below is paired with its result.
Compound: CC(C)n1nc(Cn2cccn2)c2c1CN(C1CCOC1)C2 (configuration not stated)
cytotoxicity at 70.5 h (%): -4.66

Compound: CCC1=N[C@@]2(CC[C@@H]3CN(C(=O)Nc4ccc(F)cc4)C[C@@H]32)C(=O)N1
cytotoxicity at 70.5 h (%): 0.571

Compound: Cc1cccc(CN2CCCC[C@H]3CN(c4ncccn4)C[C@H]32)c1
cytotoxicity at 70.5 h (%): 5.5

Compound: COc1ncccc1CN1C[C@@H]2COC[C@]2(CNS(C)(=O)=O)C1
cytotoxicity at 70.5 h (%): -13.2

Let's switch to this compound now.
## Task Give cytotoxicity at 70.5 h for COC(=O)c1ccc(CN2CCN(Cc3nc(C)no3)CC2)s1
## Result -7.55

* * *

Assay: Human HepG2 cell viability assay in 384 well format
Assay type: toxicity, cell-based
Parameters: dose 125 nL, time 70.5 hour; concentration not given beside the values
Settings: HepG2 cells, read-out: Inhibition
Quantity name: cytotoxicity at 70.5 h (%)
Numbers only; they are read as %.

## Task Give cytotoxicity at 70.5 h for COc1cc(N2C[C@H]3CCN(CCN4CCCC4)C[C@H]3C2)ncn1
## Result -1.14

## Task Give cytotoxicity at 70.5 h for FC(F)(F)c1ccnc(N2CCCCCC2)c1
## Result -10.6

## Task Give cytotoxicity at 70.5 h for CC(=O)N(Cc1ncc(C)o1)C1CCN(Cc2ccncc2Cl)C1 (stereo unspecified)
## Result -1.73

## Task Give cytotoxicity at 70.5 h for Cc1cc(-c2ccc(=O)n(CCNC(=O)C3CCC3)n2)c(C)o1
## Result 15.6

## Task Give cytotoxicity at 70.5 h for CC(CNS(N)(=O)=O)c1ccc(F)c(F)c1 (stereo unspecified)
## Result 3.38

## Task Give cytotoxicity at 70.5 h for O=C(NCC1CC1)c1nc(COc2ccc3c(c2)OCO3)no1
## Result 0.603

* * *

Experiment: Human HepG2 cell viability assay in 384 well format
Type: toxicity, cell-based
Set-up: dose 125 nL, time 70.5 hour; concentration not given beside the values
Details: HepG2 cells, read-out: Inhibition
Measured cytotoxicity at 70.5 h by item
Numbers only; they are read as %.

Observe how each entry below is paired with its result.
Compound: CC(C)NC(=O)[C@@H]1C[C@@H](N)CN1C(=O)c1cc2c([nH]c1=O)CCCC2
Unit text: %
cytotoxicity at 70.5 h: -6.99
--
Compound: O=C(NCCc1cc(N2CCOCC2)nc(N2CCCC2)n1)C1CC1
Unit text: %
cytotoxicity at 70.5 h: -5.52
--
Compound: O=C(NCCNc1ccc(C(F)(F)F)cn1)c1ccoc1
Unit text: %
cytotoxicity at 70.5 h: -8.13
--
Compound: c1ccc(Cn2cc3c(n2)C(COCC2CC2)OCC3)nc1 (centres undefined)
Unit text: %
cytotoxicity at 70.5 h: 8.53
--
Compound: CN(Cc1cc2cc(F)ccc2[nH]1)c1cc(C2CCCNC2)ncn1 (centres undefined)
Unit text: %
cytotoxicity at 70.5 h: -0.169
--
Compound: Cn1cc(C(=O)Nc2cccc(F)c2)ccc1=O
Unit text: %
cytotoxicity at 70.5 h: 0.823

## Task Give cytotoxicity at 70.5 h for CCn1c(C2CCNCC2)nn(Cc2ccc(C(=O)NC)o2)c1=O
## Result -12.2

## Task Give cytotoxicity at 70.5 h for Cc1cc(C2CCCN(Cc3nnc(Cc4ccccc4)o3)C2)n[nH]1 (centres undefined)
## Result -9.79

## Task Give cytotoxicity at 70.5 h for O=C(NCCn1ccc(-c2ccncc2)n1)c1ccncc1
## Result -2.74

## Task Give cytotoxicity at 70.5 h for CCN(Cc1ccc(C#N)cc1F)C(=O)CN(C)CC(N)=O
## Result -4.58

## Task Give cytotoxicity at 70.5 h for CNC(=O)c1cc(OC)c(OC)cc1N(C)S(C)(=O)=O
## Result -7.84

## Task Give cytotoxicity at 70.5 h for O=C1COC2(CCN(CC3CC3)CC2)CN1c1ccccc1
## Result -9.15

## Task Give cytotoxicity at 70.5 h for COc1ccccc1N1CCN(C(=O)Cn2nccc2C)CC1(C)C
## Result -3.69

## Task Give cytotoxicity at 70.5 h for Cc1nnc(SCC(=O)c2cc3c(cc2Cl)NC(=O)C3)s1
## Result -30.2
